# Tested on: Fibroblast
# protocol.notes: Multiplex assay against human fibroblast
# Format: toxicity, cell-based
# test.conditions: 12 h, 1 µM, compound concentration 1 uM, replicate 2
Field: label. Allowed values: 1 (yes) (Population Hoechst High Intensity Objects (%) < 20%) or 0 (no) (Population Hoechst High Intensity Objects (%) >= 20%).

compound=CN1CCN(c2ccc(OC(F)(F)F)c(Nc3ncc4c(n3)-c3c(c(C(N)=O)nn3CCO)CC4)c2)CC1 assayed_target=Fibroblast group="1 (yes)"
compound=Cc1cc(C)cc(-c2cnc3cc(Cl)c(-c4cccc(O)c4)cc3c2OCCCN)c1 assayed_target=Fibroblast group="1 (yes)"
compound=Cc1nc(-c2cn3c(n2)-c2ccc(-c4cnn(C(C)(C)C(N)=O)c4)cc2OCC3)n(C(C)C)n1 assayed_target=Fibroblast group="0 (no)"
compound=COc1ncc(-c2ccc3nccc(-c4ccnnc4)c3c2)cc1NS(=O)(=O)c1ccc(F)cc1F assayed_target=Fibroblast group="1 (yes)"
compound=CNc1nc(NCc2ccc(NS(C)(=O)=O)cc2Cl)cc(-c2ccccn2)n1 assayed_target=Fibroblast group="1 (yes)"
compound=OC1(c2ccc(Cl)cc2)CCN(Cc2c[nH]c3ccccc23)CC1 assayed_target=Fibroblast group="1 (yes)"
compound=Cc1nc(-c2ccc(-c3ccc(C(=O)N4CCc5cc6c(cc54)C4(CCN(C)CC4)CO6)cc3)c(C)c2)no1 assayed_target=Fibroblast group="1 (yes)"
compound=Cn1cc(-c2[nH]c3cc(NC(=O)[C@H](N)C4CCCCC4)cc4c3c2C=NNC4=O)cn1 assayed_target=Fibroblast group="1 (yes)"
compound="CN1CCC[C@@H]1CCO[C@](C)(c1ccccc1)c1ccc(Cl)cc1.O=C(O)/C=C/C(=O)O [CLEMASTINE FUMARATE]" assayed_target=Fibroblast group="1 (yes)"
compound="C=CC(=O)Nc1cc2c(Nc3ccc(F)c(Cl)c3)ncnc2cc1OCCCN1CCOCC1.Cl.Cl [CANERTINIB DIHYDROCHLORIDE]" assayed_target=Fibroblast group="0 (no)"
compound="CC(C)NCC(O)COc1ccc(CCOCC2CC2)cc1.Cl (stereo not drawn) [BETAXOLOL HYDROCHLORIDE]" assayed_target=Fibroblast group="1 (yes)"
compound=NC(=O)Nc1cc(-c2cccc(F)c2)sc1C(=O)N[C@H]1CCCNC1 assayed_target=Fibroblast group="0 (no)"
compound=COc1cc(-n2cnc3cc(-c4ccc(Cl)cc4)sc3c2=O)ccc1OCCN1CCCC1 assayed_target=Fibroblast group="1 (yes)"

* * *

# System: U2OS
# protocol.notes: Multiplex assay against U2OS
# Format: toxicity, cell-based
# test.conditions: human, 24 h, 1 µM, compound concentration 1 uM, replicate 2
Field: label. Allowed values: criterion met (Population Apoptotic (%) < 30%) or criterion not met (Population Apoptotic (%) >= 30%).

compound=CC[C@H](C)C(=O)O[C@H]1C[C@@H](C)C=C2C=C[C@H](C)[C@H](CC[C@@H]3C[C@@H](O)CC(=O)O3)[C@H]21 group="criterion not met"
compound="CN(C)C(=O)N[C@H]1CC[C@H](CCN2CCN(c3cccc(Cl)c3Cl)CC2)CC1.Cl [CARIPRAZINE HYDROCHLORIDE]" group="criterion not met"
compound=CN(C)CC#Cc1ccc(OCCCc2sc(N3CCc4cccc(C(=O)Nc5nc6ccccc6s5)c4C3)nc2C(=O)O)c(F)c1 group="criterion not met"
compound=OC1(c2ccc(Cl)cc2)CCN(Cc2c[nH]c3ccccc23)CC1 group="criterion met"
compound="O=C1NCN(c2ccccc2)C12CCN(CCCOc1ccc(F)cc1)CC2 [SPIRAMIDE]" group="criterion met"
compound=CCN(CC)CCCCNc1ncc2cc(-c3cc(OC)cc(OC)c3)c(NC(=O)NC(C)(C)C)nc2n1 group="criterion not met"
compound=Cc1nc(-c2cn3c(n2)-c2ccc(-c4cnn(C(C)(C)C(N)=O)c4)cc2OCC3)n(C(C)C)n1 group="criterion met"

* * *

The entries below are paired with their reported Total Cell Count.
# System: U2OS
# protocol.notes: Multiplex assay against U2OS
# Assay type: toxicity, cell-based
# test.conditions: human, 24 h, 1 µM, compound concentration 1 uM, replicate 1
value.type: Total Cell Count

compound=COc1ncc(-c2ccc3nccc(-c4ccnnc4)c3c2)cc1NS(=O)(=O)c1ccc(F)cc1F experimental_result=135
compound="CC(C)NCC(O)COc1ccc(CCOCC2CC2)cc1.Cl (stereo not given) [BETAXOLOL HYDROCHLORIDE]" experimental_result=202
compound=CN(C)CC#Cc1ccc(OCCCc2sc(N3CCc4cccc(C(=O)Nc5nc6ccccc6s5)c4C3)nc2C(=O)O)c(F)c1 experimental_result=222
compound=Cc1nc(Nc2n[nH]c3c2CN(C(=O)N[C@H](CN(C)C)c2ccccc2)C3(C)C)c2sccc2n1 experimental_result=292
compound=Cc1csc2c(N[C@@H](C)CN3CCN(S(=O)(=O)c4ccc(Cl)c(Cl)c4)CC3)ncnc12 experimental_result=175
compound=Cn1cc(-c2[nH]c3cc(NC(=O)[C@H](N)C4CCCCC4)cc4c3c2C=NNC4=O)cn1 experimental_result=121
compound=Cc1[nH]c(/C=C2\C(=O)Nc3ccc(S(=O)(=O)N(C)c4cccc(Cl)c4)cc32)c(C)c1C(=O)N1CCN(C)CC1 experimental_result=272
compound="COc1cccc([C@@H](C)NCCCc2ccccc2Cl)c1.Cl [TECALCET HYDROCHLORIDE]" experimental_result=239
compound="CN1CCC[C@@H]1CCO[C@](C)(c1ccccc1)c1ccc(Cl)cc1.O=C(O)/C=C/C(=O)O [CLEMASTINE FUMARATE]" experimental_result=135
compound=CC(C)(O)CNc1ncc(-c2ccnc(Nc3ccnc(Cl)c3)n2)c(CC2CC2)n1 experimental_result=196
compound=C[C@@]1(C(=O)Nc2ccc(F)nc2)CCCN1c1nc(Nc2cc(C3CC3)n[nH]2)c2cccn2n1 experimental_result=181
compound=Cc1cc(C)cc(-c2cnc3cc(Cl)c(-c4cccc(O)c4)cc3c2OCCCN)c1 experimental_result=131
compound=CN1CCN(c2ccc(OC(F)(F)F)c(Nc3ncc4c(n3)-c3c(c(C(N)=O)nn3CCO)CC4)c2)CC1 experimental_result=962
compound="O=C1NCN(c2ccccc2)C12CCN(CCCOc1ccc(F)cc1)CC2 [SPIRAMIDE]" experimental_result=229
compound=Cc1nc(-c2cn3c(n2)-c2ccc(-c4cnn(C(C)(C)C(N)=O)c4)cc2OCC3)n(C(C)C)n1 experimental_result=240
compound="C=CC(=O)Nc1cc2c(Nc3ccc(F)c(Cl)c3)ncnc2cc1OCCCN1CCOCC1.Cl.Cl [CANERTINIB DIHYDROCHLORIDE]" experimental_result=137
compound=CNc1nc(NCc2ccc(NS(C)(=O)=O)cc2Cl)cc(-c2ccccn2)n1 experimental_result=125
compound=Cc1c(-c2ccc(O)cc2)n(Cc2ccc(OCCN3CCCCCC3)cc2)c2ccc(O)cc12 experimental_result=157
compound=CCN(CC)CCCCNc1ncc2cc(-c3cc(OC)cc(OC)c3)c(NC(=O)NC(C)(C)C)nc2n1 experimental_result=298
compound="C[C@@H](NCCCc1cccc(C(F)(F)F)c1)c1cccc2ccccc12.Cl [CINACALCET HYDROCHLORIDE]" experimental_result=205
compound=NC(=O)Nc1cc(-c2cccc(F)c2)sc1C(=O)N[C@H]1CCCNC1 experimental_result=150
compound=CN1CCN(CCOc2cc(OC3CCOCC3)c3c(Nc4c(Cl)ccc5c4OCO5)ncnc3c2)CC1 experimental_result=139
compound="CN1CCCC(n2nc(Cc3ccc(Cl)cc3)c3ccccc3c2=O)CC1.Cl (stereo not given) [AZELASTINE HYDROCHLORIDE]" experimental_result=108
compound=COc1cc(-n2cnc3cc(-c4ccc(Cl)cc4)sc3c2=O)ccc1OCCN1CCCC1 experimental_result=175

* * *

# Test system: Fibroblast
# protocol.notes: Multiplex assay against human fibroblast
# Assay type: toxicity, cell-based
# test.conditions: 48 h, 1 µM, compound concentration 1 uM, replicate 1
# label = Y if Population Tubulin-Different-Phenotype (%) >= 60% else N

compound=c1cn2cc(-c3ccc4cn[nH]c4c3)nc(Nc3ccc(N4CCOCC4)cc3)c2n1 assayed_target=Fibroblast group=N
compound=CN(C)CC#Cc1ccc(OCCCc2sc(N3CCc4cccc(C(=O)Nc5nc6ccccc6s5)c4C3)nc2C(=O)O)c(F)c1 assayed_target=Fibroblast group=N
compound=Cc1csc2c(N[C@@H](C)CN3CCN(S(=O)(=O)c4ccc(Cl)c(Cl)c4)CC3)ncnc12 assayed_target=Fibroblast group=Y
compound=C=CC(=O)Nc1ccc2ncnc(Nc3ccc(OCc4cccc(F)c4)c(Cl)c3)c2c1.Cc1ccc(S(=O)(=O)O)cc1 assayed_target=Fibroblast group=N
compound="C[C@@H](NCCCc1cccc(C(F)(F)F)c1)c1cccc2ccccc12.Cl [CINACALCET HYDROCHLORIDE]" assayed_target=Fibroblast group=N
compound=Cc1[nH]c(/C=C2\C(=O)Nc3ccc(S(=O)(=O)N(C)c4cccc(Cl)c4)cc32)c(C)c1C(=O)N1CCN(C)CC1 assayed_target=Fibroblast group=Y
compound=CN1CCN(c2ccc(OC(F)(F)F)c(Nc3ncc4c(n3)-c3c(c(C(N)=O)nn3CCO)CC4)c2)CC1 assayed_target=Fibroblast group=Y
compound=Cc1c(-c2ccc(O)cc2)n(Cc2ccc(OCCN3CCCCCC3)cc2)c2ccc(O)cc12 assayed_target=Fibroblast group=N
compound=COc1ncc(-c2ccc3nccc(-c4ccnnc4)c3c2)cc1NS(=O)(=O)c1ccc(F)cc1F assayed_target=Fibroblast group=N
compound="CN1CCCC(n2nc(Cc3ccc(Cl)cc3)c3ccccc3c2=O)CC1.Cl (stereo not given) [AZELASTINE HYDROCHLORIDE]" assayed_target=Fibroblast group=N
